Entry source: the supplement of paper PMC10307832

For each entry below, report its relative viability value.
- System: NCI-H3122
- measurement.notes: relative viability (nuclei count vs DMSO), 5 days (fraction); higher = more cells survive
- measurement.conditions: first compound 0.003162 µM
// no unit string in output, number only

According to the records, this compound Cc1cn(-c2cc(NC(=O)c3ccc(C)c(Nc4nccc(-c5cccnc5)n4)c3)cc(C(F)(F)F)c2)cn1 [Nilotinib] + COc1cc2c(Oc3ccc(NC(=O)C4(C(=O)Nc5ccc(F)cc5)CC4)cc3F)ccnc2cc1OCCCN1CCOCC1 [Foretinib] (partner 0.25 µM) displays relative viability of 1.09

According to the records, this compound Cc1cn(-c2cc(NC(=O)c3ccc(C)c(Nc4nccc(-c5cccnc5)n4)c3)cc(C(F)(F)F)c2)cn1 [Nilotinib] + Cc1nc(Nc2ncc(C(=O)Nc3c(C)cccc3Cl)s2)cc(N2CCN(CCO)CC2)n1 [Dasatinib] (partner 0.075 µM) displays relative viability of 0.91

According to the records, this compound Cc1cn(-c2cc(NC(=O)c3ccc(C)c(Nc4nccc(-c5cccnc5)n4)c3)cc(C(F)(F)F)c2)cn1 [Nilotinib] + C[C@]1(O)C[C@@H](c2nc(-c3ccc4ccc(-c5ccccc5)nc4c3)c3c(N)nccn32)C1 [Linsitinib] (partner 1 µM) displays relative viability of 1.11

According to the records, this compound Cc1cn(-c2cc(NC(=O)c3ccc(C)c(Nc4nccc(-c5cccnc5)n4)c3)cc(C(F)(F)F)c2)cn1 [Nilotinib] + CCNC(=O)c1noc(-c2cc(C(C)C)c(O)cc2O)c1-c1ccc(CN2CCOCC2)cc1 [Luminespib] (partner 0.01 µM) displays relative viability of 0.106

According to the records, this compound Cc1cn(-c2cc(NC(=O)c3ccc(C)c(Nc4nccc(-c5cccnc5)n4)c3)cc(C(F)(F)F)c2)cn1 [Nilotinib] + Nc1nc2[nH]cc(CCc3ccc(C(=O)N[C@@H](CCC(=O)O)C(=O)O)cc3)c2c(=O)[nH]1 [Pemetrexed] (partner 0.2 µM) displays relative viability of 0.226

According to the records, this compound Cc1cn(-c2cc(NC(=O)c3ccc(C)c(Nc4nccc(-c5cccnc5)n4)c3)cc(C(F)(F)F)c2)cn1 [Nilotinib] + Cc1nc(NC(=O)N2CCC[C@H]2C(N)=O)sc1-c1ccnc(C(C)(C)C(F)(F)F)c1 [Alpelisib] (partner 2 µM) displays relative viability of 0.925

According to the records, this compound Cc1cn(-c2cc(NC(=O)c3ccc(C)c(Nc4nccc(-c5cccnc5)n4)c3)cc(C(F)(F)F)c2)cn1 [Nilotinib] + O=C(CCCCCCC(=O)Nc1ccccc1)NO [Vorinostat] (partner 1 µM) displays relative viability of 1.47

According to the records, this compound Cc1cn(-c2cc(NC(=O)c3ccc(C)c(Nc4nccc(-c5cccnc5)n4)c3)cc(C(F)(F)F)c2)cn1 [Nilotinib] + C[C@@H](Oc1cc(-c2cnn(C3CCNCC3)c2)cnc1N)c1c(Cl)ccc(F)c1Cl [Crizotinib] (partner 1 µM) displays relative viability of 0.314

According to the records, this compound Cc1cn(-c2cc(NC(=O)c3ccc(C)c(Nc4nccc(-c5cccnc5)n4)c3)cc(C(F)(F)F)c2)cn1 [Nilotinib] + CC1(C)CCC(c2ccc(Cl)cc2)=C(CN2CCN(c3ccc(C(=O)NS(=O)(=O)c4ccc(N[C@H](CCN5CCOCC5)CSc5ccccc5)c(S(=O)(=O)C(F)(F)F)c4)cc3)CC2)C1 [Navitoclax] (partner 0.5 µM) displays relative viability of 1.12
